# TARGET: Human recombinant PDE10A (hPDE10A) (Homo sapiens, UniProt Q9Y233)
# Construct: His tag (inferred from metal chelate purification); made in house; host or cells: Sf9 insect cells (baculovirus)
# Sequence (Q9Y233 267-1055): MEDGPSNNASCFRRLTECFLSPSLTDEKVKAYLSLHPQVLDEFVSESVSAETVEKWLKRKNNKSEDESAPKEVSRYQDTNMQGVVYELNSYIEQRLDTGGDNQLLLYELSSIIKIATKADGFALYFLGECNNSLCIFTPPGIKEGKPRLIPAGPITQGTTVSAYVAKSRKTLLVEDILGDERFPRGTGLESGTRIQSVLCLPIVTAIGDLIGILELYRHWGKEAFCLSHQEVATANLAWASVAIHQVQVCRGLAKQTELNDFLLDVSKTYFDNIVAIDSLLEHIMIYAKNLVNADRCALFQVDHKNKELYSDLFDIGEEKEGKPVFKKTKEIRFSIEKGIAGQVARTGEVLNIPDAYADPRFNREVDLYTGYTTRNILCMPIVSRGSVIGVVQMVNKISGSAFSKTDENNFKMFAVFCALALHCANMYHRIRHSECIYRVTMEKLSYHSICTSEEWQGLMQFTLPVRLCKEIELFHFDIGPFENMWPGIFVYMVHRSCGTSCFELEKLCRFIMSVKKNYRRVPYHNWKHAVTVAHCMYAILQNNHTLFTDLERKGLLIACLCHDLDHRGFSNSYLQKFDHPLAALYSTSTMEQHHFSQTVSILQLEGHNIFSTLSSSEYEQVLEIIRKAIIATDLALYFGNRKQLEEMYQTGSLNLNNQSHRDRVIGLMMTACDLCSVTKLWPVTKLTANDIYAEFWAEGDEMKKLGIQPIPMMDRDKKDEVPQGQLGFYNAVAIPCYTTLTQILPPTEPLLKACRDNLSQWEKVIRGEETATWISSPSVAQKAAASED
# PROTOCOL SUMMARY: In vitro assay PDE10A, human clone (SPA, 3H-cAMP hydrolysis)
# Type: biochemical
# CONDITIONS USED: human clone (h), default; read-out: hPDE10A2 pIC50 (converted)
READOUT NAME: IC50 (nM)
Reply with just the number (in nM).

In the examples that follow, each entry is paired with its recorded IC50.
C[C@@H]1CCN(C(=O)c2cnc3ccccc3c2O)C[C@H]1c1cc(C(F)F)nc2ncnn12 = 3310
COc1ccc2nc(C(=O)N3CC[C@@H](C)[C@H](c4cc(C(F)F)nc5ncnn45)C3)sc2c1 = 355

Consider now this further compound.
Need IC50, item `C[C@@H]1CCN(C(=O)c2ccc3ncoc3c2)C[C@H]1c1cc(C(F)F)nc2ncnn12` 74.1
